This collection of values is drawn from ChEMBL document CHEMBL2203046.

Give measured pKi for each item. Keep answers brief.
# Target System: Glucocorticoid receptor (Homo sapiens)
# Sequence (P04150 whole entry): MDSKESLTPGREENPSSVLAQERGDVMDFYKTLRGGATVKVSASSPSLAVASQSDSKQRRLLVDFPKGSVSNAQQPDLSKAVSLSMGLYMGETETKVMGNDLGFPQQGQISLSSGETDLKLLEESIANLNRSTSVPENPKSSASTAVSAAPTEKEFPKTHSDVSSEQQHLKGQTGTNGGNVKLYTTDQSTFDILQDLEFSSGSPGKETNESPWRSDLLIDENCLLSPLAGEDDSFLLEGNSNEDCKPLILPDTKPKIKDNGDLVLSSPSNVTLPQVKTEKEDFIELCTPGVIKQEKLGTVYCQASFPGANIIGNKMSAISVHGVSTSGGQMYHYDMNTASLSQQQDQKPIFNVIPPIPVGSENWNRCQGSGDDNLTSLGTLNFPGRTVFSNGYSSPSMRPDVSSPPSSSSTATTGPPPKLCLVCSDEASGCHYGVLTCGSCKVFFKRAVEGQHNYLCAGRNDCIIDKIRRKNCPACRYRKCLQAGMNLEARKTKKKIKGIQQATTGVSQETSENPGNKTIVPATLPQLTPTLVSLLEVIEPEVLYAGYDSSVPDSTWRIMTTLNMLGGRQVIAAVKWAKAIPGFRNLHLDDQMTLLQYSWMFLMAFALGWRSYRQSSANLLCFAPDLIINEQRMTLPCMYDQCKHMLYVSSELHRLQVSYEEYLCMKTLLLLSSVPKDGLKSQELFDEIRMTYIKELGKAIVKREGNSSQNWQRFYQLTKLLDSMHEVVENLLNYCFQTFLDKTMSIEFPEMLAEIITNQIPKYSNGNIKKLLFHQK
# Method Summary: Displacement of [3H]dexamethasone from human recombinant glucocorticoid receptor expressed in baculovirus after 18 hrs by scintillation counting analysis
Numbers only, as −log10 of the molar value.

Below, 2 molecules whose answers are already recorded.
# Molecule Smiles, pKi
measured = [
    ("O=c1[nH]c(=O)c(Cc2ccccc2)c([C@H]2CC[C@H](c3ccccc3)CC2)[nH]1", 8.40),
    ("Cc1cccc(Cc2c(=O)n(CCN(C)C)c(=O)[nH]c2[C@H]2CC[C@@H](c3ccccc3)CC2)c1", 8.05),
]

Which pKi is reported for this molecule? Cn1c(=O)[nH]c([C@H]2CC[C@@H](c3ccccc3)CC2)c(Cc2cccc(C(F)(F)F)c2)c1=O
7.80
